Reported logP values follow for various compounds
- assay_explanation: log P by HPLC
- Assay type: physicochemical
- condition_info: EEC directive 79/831 Annex V. A8 by HPLC (gradient method, acetonitrile/0.1% aqueous phosphoric acid)

- compound: "C=C(C)CNc1c(-c2ccccc2F)c(Cl)nc2nc(C)nn12 [compound 394]"
  logP: 2.68
- compound: "COC(=O)C1CCN(c2c(-c3c(F)cccc3F)c(Cl)nc3nc(C)nn23)CC1 [compound 318]"
  logP: 2.69
- compound: "FC(F)(F)C1CCCN1c1c(-c2ccccc2Cl)c(Cl)nc2nc(C3CC3)nn12 (centres unmarked) [compound 501]"
  logP: 4.41
- compound: "CCCN(CCOC)c1c(-c2c(F)cccc2F)c(Cl)nc2nc(C)nn12 [compound 348]"
  logP: 3.12
- compound: "Cc1nc2nc(Cl)c(-c3ccccc3F)c(N3CCC(C(F)(F)F)CC3)n2n1 [compound 392]"
  logP: 3.37
- compound: "CCN(CCN(C)C)c1c(-c2ccc(F)cc2F)c(Cl)nc2nc(C)nn12 [compound 353]"
  logP: 1.37
- compound: "Cc1nc2nc(Cl)c(-c3ccc(F)cc3F)c(N3CC=CCC3)n2n1 [compound 283]"
  logP: 3.11
- compound: "CCN(Cc1ccco1)c1c(-c2ccc(F)cc2F)c(Cl)nc2nc(C)nn12 [compound 354]"
  logP: 3.39
- compound: "Fc1ccc(-c2c(Cl)nc3nc(C4CC4)nn3c2N2CCCCC2)c(F)c1 [compound 517]"
  logP: 4.03
- compound: "C=C(C)CN(C)c1c(-c2c(F)cccc2Cl)c(Cl)nc2nc(C)nn12 [compound 275]"
  logP: 3.63
- compound: "Cc1nc2nc(Cl)c(-c3ccc(F)cc3F)c(NC(C)C(F)(F)F)n2n1 (single isomer, unassigned) [compound 359]"
  logP: 2.95
- compound: "CC(Nc1c(-c2ccc(F)cc2F)c(Cl)nc2nc(C(F)(F)F)nn12)C(F)(F)F (centres unmarked) [compound 358]"
  logP: 3.89
- compound: "Clc1ccccc1-c1c(Cl)nc2nc(C3CC3)nn2c1N1CCCCN1 [compound 488]"
  logP: 3.39
- compound: "Cc1nc2nc(Cl)c(-c3c(F)cccc3Cl)c(N3CCC(C(F)(F)F)CC3)n2n1 [compound 261]"
  logP: 3.72
- compound: "CC(Nc1c(-c2c(F)cccc2Cl)c(Cl)nc2nc(C3CC3)nn12)C(F)(F)F (centres unmarked) [compound 457]"
  logP: 3.59
- compound: "Cc1nc2nc(Cl)c(-c3ccccc3F)c(N3CCOCC3)n2n1 [compound 388]"
  logP: 2.16
- compound: "Cc1nc2nc(Cl)c(-c3ccc(F)cc3F)c(N3CC(C)OC(C)C3)n2n1 (centres unmarked) [compound 455]"
  logP: 2.94
